# PROTOCOL TEXT: Percent oral bioavailability examined in rats
# Format: ADME, organism-based
# MEASUREMENT CONDITIONS: rat, in vivo
MEASURED PARAMETER: bioavailability (%)
# unit: % | format: bare number

Which value of bioavailability has been reported for CCOc1nc2cccc(C(=O)O)c2n1Cc1ccc(-c2ccccc2-c2noc(=O)[nH]2)cc1 in the records?
20

###

Here's what we have: pIC50 numbers for Type-1 angiotensin II receptor (Bos taurus, UniProt P25104).
The scale used: pIC50 is minus the common logarithm of the concentration in molar units.

Reported pIC50, molecule CCCOc1nc2cccc(C(=O)O)c2n1Cc1ccc(-c2ccccc2-c2noc(O)n2)cc1 : ____
6.10

// query pIC50 value for entry CCSc1nc2cccc(C(=O)O)c2n1Cc1ccc(-c2ccccc2-c2noc(O)n2)cc1
6.32

Data request, read-out pIC50, for COc1nc2cccc(C(=O)O)c2n1Cc1ccc(-c2ccccc2-c2noc(O)n2)cc1
6.44

Give its pIC50 value. Item: CSc1nc2cccc(C(=O)O)c2n1Cc1ccc(-c2ccccc2-c2noc(O)n2)cc1
6.41

Bench note: what pIC50 did CCNc1nc2cccc(C(=O)O)c2n1Cc1ccc(-c2ccccc2-c2noc(O)n2)cc1 show?
7.38
